Would you mind telling me the reported GI50 of each entry?
- Tested on: UACC-62
- MEASUREMENT NOTES: Growth inhibition of human UACC-62 cells measured after 48 hrs by sulforhodamine B assay
- Assay type: functional
Answer with a number only, understood to be in µM.

INPUT: Return GI50 measured with UACC-62 given this molecule: `COc1ccc(/C=N/NC(=O)c2[nH]c3ccc(Br)cc3c2-c2ccccc2)o1`
OUTPUT: 0.0535

INPUT: Return GI50 measured with UACC-62 given this molecule: `O=C(N/N=C/c1ccc([N+](=O)[O-])o1)c1[nH]c2ccc(Br)cc2c1-c1ccccc1`
OUTPUT: 0.0731

INPUT: Return GI50 measured with UACC-62 given this molecule: `O=C(N/N=C/c1ccco1)c1[nH]c2ccc(Br)cc2c1-c1ccccc1`
OUTPUT: 0.0394

INPUT: Return GI50 measured with UACC-62 given this molecule: `N#Cc1ccc(/C=N/NC(=O)c2[nH]c3ccc(Br)cc3c2-c2ccccc2)o1`
OUTPUT: 0.462

---

Would you mind telling me the reported RFU of each entry?
- Species on record: Sus scrofa
- MEASUREMENT NOTES: Inhibition of porcine brain tubulin polymerization assessed as microtubule destabilization by measuring relative fluorescence unit at 10 uM measured at 60 secs interval for 60 mins in presence of GTP by fluorescence assay
Answer with a number only, understood to be in a.u..

INPUT: Consider the compound `O=C(N/N=C/c1ccc(-c2ccc(O)cc2)o1)c1[nH]c2ccc(Br)cc2c1-c1ccccc1` and give its measured RFU.
OUTPUT: 45

INPUT: Consider the compound `COc1ccsc1/C=N/NC(=O)c1[nH]c2ccc(Br)cc2c1-c1ccccc1` and give its measured RFU.
OUTPUT: 20

INPUT: Consider the compound `O=C(N/N=C/c1ccco1)c1[nH]c2ccc(Br)cc2c1-c1ccccc1` and give its measured RFU.
OUTPUT: 50

INPUT: Consider the compound `O=C(N/N=C/c1ccc([N+](=O)[O-])o1)c1[nH]c2ccc(Br)cc2c1-c1ccccc1` and give its measured RFU.
OUTPUT: 45

INPUT: Consider the compound `COc1ccc(/C=N/NC(=O)c2[nH]c3ccc(Br)cc3c2-c2ccccc2)s1` and give its measured RFU.
OUTPUT: 45

---

- System: K562
- MEASUREMENT NOTES: Growth inhibition of human K562 cells at 10 uM measured after 48 hrs by sulforhodamine B assay
- Assay type: functional, cell-based
Calls of active or inactive are those of the source. The calls are words filed in the database; no cut-off is given here.
QUANTITY MEASURED: growth inhibition (GI)

N#Cc1ccc(/C=N/NC(=O)c2[nH]c3ccc(Br)cc3c2-c2ccccc2)o1 : Active
O=C(N/N=C/c1ccc([N+](=O)[O-])o1)c1[nH]c2ccc(Br)cc2c1-c1ccccc1 : Active
COc1ccc(/C=N/NC(=O)c2[nH]c3ccc(Br)cc3c2-c2ccccc2)o1 : Active
O=C(N/N=C/c1ccco1)c1[nH]c2ccc(Br)cc2c1-c1ccccc1 : Active

---

- System: SK-MEL-5
- MEASUREMENT NOTES: Growth inhibition of human SK-MEL-5 cells at 10 uM measured after 48 hrs by sulforhodamine B assay
- Type: functional, cell-based
Activity calls are given as the source filed them. The rule behind the calls is not given here.
QUANTITY MEASURED: growth inhibition (GI)

These solved cases illustrate the format of a correct answer.
O=C(N/N=C/c1ccc([N+](=O)[O-])s1)c1[nH]c2ccc(Br)cc2c1-c1ccccc1 : Active
N#Cc1ccc(/C=N/NC(=O)c2[nH]c3ccc(Br)cc3c2-c2ccccc2)o1 : Active
O=C(N/N=C/c1ccc(B(O)O)s1)c1[nH]c2ccc(Br)cc2c1-c1ccccc1 : Active
COc1ccsc1/C=N/NC(=O)c1[nH]c2ccc(Br)cc2c1-c1ccccc1 : Active
N#Cc1ccc(/C=N/NC(=O)c2[nH]c3ccc(Br)cc3c2-c2ccccc2)s1 : Active

Now look at this entry.
INPUT: Consider the compound `COc1ccc(/C=N/NC(=O)c2[nH]c3ccc(Br)cc3c2-c2ccccc2)s1` and give its measured growth inhibition (GI).
OUTPUT: Active
